Target: T1, recombinant His6-tagged extracellular domain of human Clec4C (C-type lectin domain family 4, member C) (human, UniProt Q8WTT0 44-213)
T1 construct: Same antigen for immunisation, panning and ELISA; also called His-Clec4C(EC); pMET7-SIgK-His-Clec4C(EC)
T1 sequence: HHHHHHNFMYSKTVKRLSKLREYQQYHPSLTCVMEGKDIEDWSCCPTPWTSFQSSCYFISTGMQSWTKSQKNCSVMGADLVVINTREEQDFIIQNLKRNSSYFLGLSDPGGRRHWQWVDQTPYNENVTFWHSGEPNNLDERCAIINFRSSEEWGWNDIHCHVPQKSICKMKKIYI
Assay: ELISA, antigen-coated vs uncoated blocked wells
property: ELISA ratio coated/uncoated

Consider the worked cases shown below.
2CL66 (VHH, pMECS VHH-HA-His6; TG1 periplasmic extract) VHH: QVQLQESGGGLVQAGGSLRLSCAASERTFTNYAMGWFRQGPGKDRAFVAAISRSGSSTSYADSVKGRFTISRDNAENILYLQMNSLKPEDTAVYYCAAAPLVLKTTPGAYNYWGQGTQVTVSS: 18.6
2CL40 (VHH, pMECS VHH-HA-His6; TG1 periplasmic extract) VHH: QVQLQESGGGLVQTGGSLRVSCAASGRSISNYNMGWFRQPPGKEREIVGSIRWDGDSTYYADSVKGRFTISRDNTKNTVYLQMNSLKSEDTADYYCAATVSSFDESKNPRWYPYWGQGTQVTVSS: 13.3

[A] 1CL47 (VHH, pMECS VHH-HA-His6; TG1 periplasmic extract) VHH: QVQLQESGGGLVQAGGSRRLSCAASGRTFINYAMGWFRQAPGKEREFVAAISTSGSNTYLADSLKARFTISRDNAKNTVYLQIRSLNPEDTAVYYCAARLSFDDSAYYTSTLRYAYWGQGTQVTVSS
[B] 2CL95 (VHH, pMECS VHH-HA-His6; TG1 periplasmic extract) VHH: QVQLQESGGGLVQPGGSLKLSCAGSGSTFKHHAMAWFRHTPGKEREFVSAINDHGDRTKYSDSVRGRFTIARDNTDNMVYLQMDDLLPEDTANYTCAAGPLVDYLETTPLVYTYWGQGTQVTVSS
Rank A against B by their ELISA ratio coated/uncoated values and give the higher one. Respond using the label that marks the chosen record.
B
(B: 23.2, A: 9.79)
